test system: recombinant NL-RLuc virus (HIV NL4-3 with Renilla Luciferase gene) in MT-2 cells; assay: Inhibition of HIV replication (NL-RLuc virus, luciferase readout in MT-2 cells); assay type: cell-based; conditions: MT2, 120 h, read-out: EC50 μM
metric name: EC50

| compound | result |
| --- | --- |
| CCc1ncc(CN2CCc3cc(-c4c(C)nc(C)c([C@H](OC(C)(C)C)C(=O)O)c4N4CCC(C)(C)CC4)ccc3C2)[nH]1 | 1.54 µM |
| Cc1nc(C)c([C@H](OC(C)(C)C)C(=O)O)c(N2CCC(C)(C)CC2)c1-c1ccc2c(c1)CCN(CC1CCCOC1)C2 (stereo partly drawn) | 0.028 µM |
| COc1ncc(CN2CCc3cc(-c4c(C)nc(C)c([C@H](OC(C)(C)C)C(=O)O)c4N4CCC(C)(C)CC4)ccc3C2)cn1 | 0.008 µM |
| COc1ccc(CN2CCc3cc(-c4c(C)nc(C)c([C@H](OC(C)(C)C)C(=O)O)c4N4CCC(C)(C)CC4)ccc3C2)cn1 | 0.002 µM |
| Cc1nc(C)c([C@H](OC(C)(C)C)C(=O)O)c(N2CCC(C)(C)CC2)c1-c1ccc2c(c1)CCN(Cc1ncc[nH]1)C2 | 0.544 µM |
| Cc1n[nH]cc1CN1CCc2cc(-c3c(C)nc(C)c([C@H](OC(C)(C)C)C(=O)O)c3N3CCC(C)(C)CC3)ccc2C1 | 0.061 µM |

###

# reported EC50; entries follow
test system: recombinant NL-RLuc virus (HIV NL4-3 with Renilla Luciferase gene) in MT-2 cells; assay: Inhibition of HIV replication (NL-RLuc virus, luciferase readout in MT-2 cells); assay type: cell-based; conditions: MT2, 120 h, read-out: EC50 μM

| molecule | subject of test | EC50 / µM |
| --- | --- | --- |
| Cc1nc(C)c([C@H](OC(C)(C)C)C(=O)O)c(N2CCC(C)(C)CC2)c1-c1ccc2c(c1)CCN(Cc1cc(-c3ccccc3)on1)C2 [Compound 25] | recombinant NL-RLuc virus (HIV NL4-3 with Renilla Luciferase gene) in MT-2 cells | 0.012 |
| Cc1nc(C)c([C@H](OC(C)(C)C)C(=O)O)c(N2CCC(C)(C)CC2)c1-c1ccc2c(c1)CCN(Cc1nc(-c3ccccc3)oc1C)C2 [Compound 14] | recombinant NL-RLuc virus (HIV NL4-3 with Renilla Luciferase gene) in MT-2 cells | 0.016 |
| Cc1nc[nH]c1CN1CCc2cc(-c3c(C)nc(C)c([C@H](OC(C)(C)C)C(=O)O)c3N3CCC(C)(C)CC3)ccc2C1 [Compound 39] | recombinant NL-RLuc virus (HIV NL4-3 with Renilla Luciferase gene) in MT-2 cells | 0.231 |
| Cc1ncsc1CN1CCc2cc(-c3c(C)nc(C)c([C@H](OC(C)(C)C)C(=O)O)c3N3CCC(C)(C)CC3)ccc2C1 [Compound 8] | recombinant NL-RLuc virus (HIV NL4-3 with Renilla Luciferase gene) in MT-2 cells | 0.002 |

Numbers sourced from patent US20190152957A1.
